Cited source: paper PMC6680918

System: human lung adenocarcinoma (A549) cell line
protocol_text: Cytotoxicity by the MTT method, A549
condition: A549, read-out: IC50 cytotoxicity against A549
property_measured: IC50 (µM)
Reply numerically in µM, unit not repeated.

# annotated cases, reported IC50 shown
compound	IC50 / µM
CC(=O)C1(O)OC(=O)C=C1C (stereo not drawn) [Compound 1, Aspersclerolide A]	8.9
COc1cccc2c1C(=O)c1c(O)c3c(c(O)c1C2=O)C[C@@](O)(C(=O)CO)C[C@@H]3O[C@H]1C[C@H](N)[C@H](O)[C@H](C)O1 [doxorubicin, reference compound]	1.5

# evaluate next
human lung adenocarcinoma (A549) cell line / IC50 / COC1=CC(=O)OC1(O)C(C)Cc1c(C)cc(O)cc1O (stereo not drawn) [Compound 3, Aspersclerolide C] : value? 16.7

###

Quick record of MIC values for Staphylococcus aureus (ATCC 25923).
property_measured: MIC (µg/mL)

compound	measure_unit	MIC
COC1=CC(=O)OC1(O)C(C)Cc1c(C)cc(O)cc1O (stereo not drawn) [Compound 3, Aspersclerolide C]	µg/mL	200

I. C=C(C)C1(O)OC(=O)C=C1OC (stereo not drawn)
II. COC(CO)C1(O)OC(=O)C=C1C (stereo not drawn) [Compound 2, Aspersclerolide B]
III. O=C(N[C@H](CO)[C@H](O)c1ccc([N+](=O)[O-])cc1)C(Cl)Cl [chloramphenicol, reference compound]
Write the entries in order, lowest recorded MIC first. Please write the labels in the order that was asked for. III, I, II
